Biological target: human ether-à-go-go-related gene (hERG) potassium channel (human, UniProt Q12809);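 further: peak tail current of the secondary pulse compared with the same well before compound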
Sequence (Q12809 whole entry, looked up): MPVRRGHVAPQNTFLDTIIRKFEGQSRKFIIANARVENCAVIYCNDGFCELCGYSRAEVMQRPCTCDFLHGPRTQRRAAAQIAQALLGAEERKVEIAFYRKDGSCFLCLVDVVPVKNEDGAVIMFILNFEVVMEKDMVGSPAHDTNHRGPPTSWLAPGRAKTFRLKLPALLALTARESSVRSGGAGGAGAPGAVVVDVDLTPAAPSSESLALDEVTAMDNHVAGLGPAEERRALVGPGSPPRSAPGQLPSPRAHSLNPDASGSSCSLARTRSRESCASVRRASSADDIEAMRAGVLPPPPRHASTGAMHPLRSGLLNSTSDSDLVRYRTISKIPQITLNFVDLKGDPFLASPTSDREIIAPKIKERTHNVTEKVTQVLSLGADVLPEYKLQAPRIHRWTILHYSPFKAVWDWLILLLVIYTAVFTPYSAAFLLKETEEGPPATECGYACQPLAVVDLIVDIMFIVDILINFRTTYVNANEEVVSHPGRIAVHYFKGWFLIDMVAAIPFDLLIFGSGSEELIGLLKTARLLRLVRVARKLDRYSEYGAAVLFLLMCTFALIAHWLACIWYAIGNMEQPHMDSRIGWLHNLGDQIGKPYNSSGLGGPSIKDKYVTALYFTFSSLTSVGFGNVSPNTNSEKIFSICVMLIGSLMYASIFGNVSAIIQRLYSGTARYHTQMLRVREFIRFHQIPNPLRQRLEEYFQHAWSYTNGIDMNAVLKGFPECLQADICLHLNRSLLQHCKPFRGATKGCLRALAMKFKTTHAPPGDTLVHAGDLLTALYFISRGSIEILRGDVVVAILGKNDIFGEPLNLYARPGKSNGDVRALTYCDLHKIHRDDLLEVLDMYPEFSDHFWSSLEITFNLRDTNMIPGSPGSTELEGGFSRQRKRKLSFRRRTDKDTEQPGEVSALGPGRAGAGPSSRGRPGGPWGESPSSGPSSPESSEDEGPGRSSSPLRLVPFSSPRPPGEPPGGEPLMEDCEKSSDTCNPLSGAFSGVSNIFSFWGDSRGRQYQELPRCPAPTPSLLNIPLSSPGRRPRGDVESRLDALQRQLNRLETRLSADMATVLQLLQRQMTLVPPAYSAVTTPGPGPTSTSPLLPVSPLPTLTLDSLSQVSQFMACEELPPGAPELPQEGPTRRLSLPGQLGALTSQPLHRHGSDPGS
Assay: primary screen, population patch clamp on CHO cells stably expressing hERG; higher = less effect of the substance
Screen size: about 310,000 compounds; about 14,000 (4.5%) showed an effect of 50% or more. Effects have a minus sign here. Shown is part of a subset that was picked to be rich in strong results.
Let's look at some compounds and their measured hERG current change (%, negative = inhibition) at 10uM.
METRIC: hERG current change (%, negative = inhibition) at 10uM (%)

COMPOUND	UNIT TEXT	MEASURED VALUE
CC(C(=O)OCC(=O)c1ccc([N+](=O)[O-])cc1)N1C(=O)C2C3C=CC(C3)C2C1=O (stereo not shown)	%	-43
O=C(CSc1ncnc2sc3c(c12)CCCC3)c1ccco1	%	6.66
O=C(c1ccco1)N1CCN(c2ncnc3sc4c(c23)CCC4)CC1	%	-56.6
O=C(CCC1CCCC1)Nc1ccon1	%	12.2
COc1ccc(/C=C/c2cc(-c3ccc(C)cc3)o[n+]2C)cc1.F[B-](F)(F)F	%	-77.1
O=C(CCN1C(=O)C2C3CCC(C3)C2C1=O)OCC(=O)c1ccc(Cl)cc1 (stereo not shown)	%	-53.2
COc1cc(NS(=O)(=O)c2ccc(NC(=S)NC(=O)c3sc4ccccc4c3Cl)cc2)ncn1	%	16.3
O=C(Nc1ncnc2sc3c(c12)CCC3)c1ccco1	%	-4.5
CCCCC(=O)Nc1nnc(-c2ccco2)o1	%	-0.241
CC(C(=O)OCC(=O)c1ccc([N+](=O)[O-])cc1)N1C(=O)C2C3CCC(C3)C2C1=O (stereo not shown)	%	-54

* * *

Target: human ether-à-go-go-related gene (hERG) potassium channel (human);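 further: peak tail current of the secondary pulse compared with the same well before compound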
Test: primary screen, population patch clamp on CHO cells stably expressing hERG; higher = less effect of the substance
Experimental: Briefly, Chinese hamster ovary (CHO) cells stably expressing the hERG channel were dislodged from tissue culture flasks and dispensed into PPC plates. […] During the recording, background leak currents were estimated by a 100 ms step to -80 mV from an initial holding potential of -70 mV and subtracted from the subsequent current measurement. The campaign was conducted in two phases using slight differences in recording protocol. […]
Screen size: about 310,000 compounds; about 14,000 (4.5%) showed an effect of 50% or more. The effect is printed as a negative number. The entries come from a sample that favours strong results as a whole.
Let's look at some molecules and their measured hERG current change (%, negative = inhibition) at 10uM.
METRIC: hERG current change (%, negative = inhibition) at 10uM (%)

MOLECULE	TESTED TARGET	MEASURED VALUE
COc1ccc(/C=C/CN2CCN(Cc3ccc(F)cc3)C(CCO)C2)cc1 (stereo not shown)	human ether-à-go-go-related gene (hERG) potassium channel (human)	-58.5
CCN1CCN(CCCNC(=O)C2c3ccccc3C(=O)N(c3ccc(OC)cc3)C2c2ccc(OC)cc2)CC1 (stereo not shown)	human ether-à-go-go-related gene (hERG) potassium channel (human)	1.22
COc1ccc2cc(CN(Cc3ccco3)Cc3nnnn3C3CCCCC3)c(=O)[nH]c2c1	human ether-à-go-go-related gene (hERG) potassium channel (human)	-19.4
COc1cc2cc(CN(CCCN3CCOCC3)Cc3nnnn3Cc3ccccc3)c(=O)[nH]c2cc1OC	human ether-à-go-go-related gene (hERG) potassium channel (human)	-20.2
CCOc1ccc(CN2CCN(C/C=C/c3ccc(OC)cc3)CC2CCO)cc1 (stereo not shown)	human ether-à-go-go-related gene (hERG) potassium channel (human)	-88.7
Cl.c1cc(CNC23CC4CC(CC(C4)C2)C3)ccn1	human ether-à-go-go-related gene (hERG) potassium channel (human)	-20.2
COc1cc2c(cc1OC)CN(Cc1cc(=O)oc3cc(C)c(C)cc13)CC2	human ether-à-go-go-related gene (hERG) potassium channel (human)	-37.6
Cc1ccc2[nH]c(=O)c(CN(Cc3ccc4c(c3)OCO4)Cc3nnnn3C3CCCC3)cc2c1	human ether-à-go-go-related gene (hERG) potassium channel (human)	4.66
Cc1noc(C)c1C(=O)OCC(=O)c1cc(C)n(Cc2ccccc2Cl)c1C	human ether-à-go-go-related gene (hERG) potassium channel (human)	-7.65
COc1ccc2cc(CN(CCCN3CCOCC3)Cc3nnnn3C3CCCCC3)c(=O)[nH]c2c1	human ether-à-go-go-related gene (hERG) potassium channel (human)	-26.5
CC12CC3CC(C)(C1)CC(NCc1ccncc1)(C3)C2.Cl	human ether-à-go-go-related gene (hERG) potassium channel (human)	-58.7
COC(=O)c1ccc(CN2CCN(Cc3ccc(F)cc3)C(CCO)C2)cc1 (stereo not shown)	human ether-à-go-go-related gene (hERG) potassium channel (human)	10.1
COc1cccc(CN2CCN(Cc3ccc(OC)c(OC)c3)CC2CCO)c1 (stereo not shown)	human ether-à-go-go-related gene (hERG) potassium channel (human)	-27.2
CCc1ccc2c(CN3CCc4cc(OC)c(OC)cc4C3)cc(=O)oc2c1	human ether-à-go-go-related gene (hERG) potassium channel (human)	-66
CCCCn1c(N)c(N(CCOC)C(=O)C2CC(=O)N(c3cccc(SC)c3)C2)c(=O)[nH]c1=O (stereo not shown)	human ether-à-go-go-related gene (hERG) potassium channel (human)	14.4
CC(C)N1CCC(N2CCN(C/C=C/c3ccc(F)cc3)CC2CCO)CC1 (stereo not shown)	human ether-à-go-go-related gene (hERG) potassium channel (human)	-6.87
CCOc1ccc2[nH]c(=O)c(CN(CCCN3CCOCC3)Cc3nnnn3Cc3ccc(OC)cc3)cc2c1	human ether-à-go-go-related gene (hERG) potassium channel (human)	-60.9
Cc1ccc2[nH]c(=O)c(CN(CCCN3CCOCC3)Cc3nnnn3C3CCCC3)cc2c1	human ether-à-go-go-related gene (hERG) potassium channel (human)	-54.5
Cc1ccc2[nH]c(=O)c(CN(Cc3ccccc3)Cc3nnnn3C3CCCC3)cc2c1	human ether-à-go-go-related gene (hERG) potassium channel (human)	-6.83
